Parameter: inhibition at 10 µM. Scope: all listed entries.
- assayed target: 17β-HSD1 (Homo sapiens, UniProt P14061)
- Construct: was measured in intact cell monolayers of T47D and MDA-MB-231 breast cancer cells respectively; endogenous in cells; host or cells: T-47D human breast cancer cells
- protocol text: 17β-HSD Type I activity in T-47D cells (E1→E2)
- Type: cell-based
- condition notes: T47D, read-out: % inhibition of 17β-HSD1 @ 10 μM, 10 μM; T-47D cells, E1→E2
Provide only the numeric value, understood in %.

Given the compound Cn1cccc1CNC(=O)c1[nH]nc2c1CC1C3CCc4cc(O)ccc4C3CC[C@]21C (stereo partly shown) and test system 17β-HSD1 (Homo sapiens, UniProt P14061), the measured inhibition at 10 µM is 89

Given the compound CC(C)NC(=O)C1CC2C3CCc4cc(O)ccc4C3CC[C@]2(C)[C@H]1O (stereo partly shown) and test system 17β-HSD1 (Homo sapiens, UniProt P14061), the measured inhibition at 10 µM is 70

Given the compound C[C@]12CCC3c4ccc(O)cc4CCC3C1C/C(=C(/O)C(F)(F)F)C2=O (stereo partly shown) and test system 17β-HSD1 (Homo sapiens, UniProt P14061), the measured inhibition at 10 µM is 69

Further cases:
Given the compound CC(C)Cn1ncc2c1[C@@]1(C)CCC3c4ccc(O)cc4CCC3C1C2 (stereo partly shown) and test system 17β-HSD1 (Homo sapiens, UniProt P14061), the measured inhibition at 10 µM is 70

====

- assayed target: 17β-HSD2 (Homo sapiens, UniProt P37059)
- Construct: was measured in intact cell monolayers of T47D and MDA-MB-231 breast cancer cells respectively; endogenous in cells; host or cells: MDA-MB-231 human breast cancer cells
- protocol text: 17β-HSD Type II activity in MDA-MB-231 cells (E2→E1)
- Type: cell-based
- condition notes: 10 μM; MDA-MB-231 cells, E2→E1; read-out: % inhibition of 17β-HSD2 @ 10 μM
quantity name: inhibition at 10 µM (%)
Provide only the numeric value, understood in %.

Entry CCOC(=O)c1[nH]nc2c1CC1C3CCc4cc(O)ccc4C3CC[C@]21C (stereo partly shown) ; inhibition at 10 µM = 7

Further cases:
Entry C[C@]12CCC3c4ccc(O)cc4CCC3C1C/C(=C\c1ccncc1)C2=O (stereo partly shown) ; inhibition at 10 µM = 25

Entry COc1cc2c(cc1O)CCC1C2CC[C@]2(C)C(=O)C(CC(=O)NCc3cccnc3)CC12 (stereo partly shown) ; inhibition at 10 µM = 1.2

====

- assayed target: 17β-HSD1 (Homo sapiens)
- Construct: was measured in intact cell monolayers of T47D and MDA-MB-231 breast cancer cells respectively; endogenous in cells; host or cells: T-47D human breast cancer cells
- Sequence (P14061 1-328): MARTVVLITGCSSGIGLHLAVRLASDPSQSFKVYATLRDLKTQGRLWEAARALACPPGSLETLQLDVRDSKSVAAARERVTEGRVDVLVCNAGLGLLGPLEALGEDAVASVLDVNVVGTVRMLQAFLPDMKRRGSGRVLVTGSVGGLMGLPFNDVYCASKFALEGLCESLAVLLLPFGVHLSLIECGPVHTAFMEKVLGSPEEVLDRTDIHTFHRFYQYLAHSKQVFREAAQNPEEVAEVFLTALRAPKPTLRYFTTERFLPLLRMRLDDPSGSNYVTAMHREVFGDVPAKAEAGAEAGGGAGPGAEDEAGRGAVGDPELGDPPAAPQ
- protocol text: 17β-HSD Type I activity in T-47D cells (E1→E2)
- Type: cell-based
- condition notes: T47D, 10 μM; T-47D cells, E1→E2; read-out: % inhibition of 17β-HSD1 @ 10 μM
Please use Satisfied whenever inhibition at 10 µM is not below 90%, and Not satisfied whenever it is.

Check this compound for inhibition at 10 µM at or above 90%: CC(C)/C=C1\CC2C3CCc4cc(O)ccc4C3CC[C@]2(C)[C@H]1O (some centres unmarked) [compound 614] Not satisfied

Further cases:
Check this compound for inhibition at 10 µM at or above 90%: C[C@]12CCC3c4ccc(O)cc4CCC3C1Cc1c2n[nH]c1C(=O)O (some centres unmarked) [compound 783] Not satisfied

Check this compound for inhibition at 10 µM at or above 90%: C[C@]12CCC3c4ccc(O)cc4CCC3C1CC(CC(=O)Nc1nccs1)C2=O (some centres unmarked) [compound 746] Not satisfied

Check this compound for inhibition at 10 µM at or above 90%: C[C@]12CCC3c4ccc(O)cc4CCC3C1Cc1c2n[nH]c1O (some centres unmarked) [compound 820] Not satisfied

Check this compound for inhibition at 10 µM at or above 90%: C[C@]12CCC3c4ccc(O)cc4CCC3C1CC(C(=O)O)C2=O (some centres unmarked) [compound 610] Satisfied

====

Parameter: inhibition at 10 µM. Scope: all listed entries.
- assayed target: 17β-HSD2 (Homo sapiens)
- Construct: was measured in intact cell monolayers of T47D and MDA-MB-231 breast cancer cells respectively; endogenous in cells; host or cells: MDA-MB-231 human breast cancer cells
- protocol text: 17β-HSD Type II activity in MDA-MB-231 cells (E2→E1)
- Format: cell-based
- condition notes: 10 μM; MDA-MB-231 cells, E2→E1; read-out: % inhibition of 17β-HSD2 @ 10 μM
Provide only the numeric value, understood in %.

Solved entries (count: 5):
Entry CCOC(=O)CC1CC2C3CCc4cc(O)ccc4C3CC[C@]2(C)C1=O (stereo partly shown) ; inhibition at 10 µM = 18

Entry CN(C)c1ccc(/C=C2\CC3C4CCc5cc(O)ccc5C4CC[C@]3(C)[C@H]2O)cc1 (stereo in doubt) ; inhibition at 10 µM = 81

Entry C[C@]12CCC3c4ccc(O)cc4CCC3C1CC(CC(=O)NCC1CCCO1)[C@@H]2O (stereo partly shown) ; inhibition at 10 µM = 25

Entry C[C@]12CCC3c4ccc(OS(N)(=O)=O)cc4CCC3C1C/C(=C\c1cccnc1)C2=O (stereo partly shown) ; inhibition at 10 µM = 10

Entry CC(C)NC(=O)CC1CC2C3CCc4cc(O)ccc4C3CC[C@]2(C)[C@H]1O (stereo partly shown) ; inhibition at 10 µM = 11

Further cases:
Entry C[C@]12CCC3c4ccc(O)cc4CCC3C1Cc1c2n[nH]c1C(=O)NCc1cccnc1 (stereo partly shown) ; inhibition at 10 µM = 28

Entry CCNC(=O)CC1CC2C3CCc4cc(O)ccc4C3CC[C@]2(C)C1=O (stereo partly shown) ; inhibition at 10 µM = 2

Entry C[C@]12CCC3C4CC=C(O)C=C4CCC3C1CC(CC(=O)O)C2=O (stereo partly shown) ; inhibition at 10 µM = -5

Entry CCNC(=O)CC1CC2C3CCc4cc(O)ccc4C3CC[C@]2(C)[C@H]1O (stereo partly shown) ; inhibition at 10 µM = 13

Entry C[C@]12CCC3c4ccc(O)cc4CCC3C1CC(CC(=O)NCc1cccnc1)C2=O (stereo partly shown) ; inhibition at 10 µM = 26

Entry COCCn1ncc2c1[C@@]1(C)CCC3c4ccc(O)cc4CCC3C1C2 (stereo partly shown) ; inhibition at 10 µM = 55

Entry CCO/C=C1/CC2C3CC(=O)c4cc(O)ccc4C3CC[C@]2(C)C1=O (stereo partly shown) ; inhibition at 10 µM = 8

Entry CNC(=O)CC1CC2C3CCc4cc(O)ccc4C3CC[C@]2(C)C1=O (stereo partly shown) ; inhibition at 10 µM = 3.5

Entry CCN(C)C(=O)c1[nH]nc2c1CC1C3CCc4cc(O)ccc4C3CC[C@]21C (stereo partly shown) ; inhibition at 10 µM = 6

Entry C[C@]12CCC3c4ccc(O)cc4CCC3C1CC1C(C(F)(F)F)=NNC12O (stereo partly shown) ; inhibition at 10 µM = 2

Entry C[C@]12CCC3c4ccc(O)cc4CCC3C1C/C(=C\c1cccnc1)C2=O (stereo partly shown) ; inhibition at 10 µM = 10
